Target: T1, GFP-9S library array, motif 4 ND N98Y;D124C (synthetic construct, N98Y;D124C)
T1 chain: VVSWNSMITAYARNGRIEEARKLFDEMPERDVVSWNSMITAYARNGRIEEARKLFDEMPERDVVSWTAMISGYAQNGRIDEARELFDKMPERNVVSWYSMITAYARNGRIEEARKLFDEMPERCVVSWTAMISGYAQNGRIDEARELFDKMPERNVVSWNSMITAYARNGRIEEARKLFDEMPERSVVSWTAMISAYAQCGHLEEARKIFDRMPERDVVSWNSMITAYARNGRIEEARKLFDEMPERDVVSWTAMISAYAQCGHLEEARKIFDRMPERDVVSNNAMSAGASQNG
Test: high-throughput RNA pulldown from lysate on Ni-NTA beads; HRP: 50 mM Tris pH 8, 150 mM NaCl, 1 mM beta-mercaptoethanol, 50 ug/ml BSA, 3 ug/ml yeast RNA, 0.5% heparin; ITC and FP: Tris pH 8, 200 mM KCl, 5% glycerol; MST: 50 mM Tris pH 8, 200 mM NaCl, 1 mM DTT, BSA, heparin, 0.05% Tween 20
Conditions: tags: N-terminal His-eGFP; label: 5' IRDye 800CW
Collected Kd values appear next to each entry.
Return type: number; implicit unit nM.

binder	property.measured	unit.descriptor	endpoint.value
AUUAAACGUGA (ssRNA) [IR-rpoA-A]	Kd	nM	211

Would you kindly share the measured Kd for AUUAUACGUGA (ssRNA) [IR-rpoA-U] ? 271
